Study target: T1, recombinant rat ErbB2-ECD (rat, UniProt P06494 23-654)
T1 construct: extracellular domain
T1 sequence (P06494 23-654): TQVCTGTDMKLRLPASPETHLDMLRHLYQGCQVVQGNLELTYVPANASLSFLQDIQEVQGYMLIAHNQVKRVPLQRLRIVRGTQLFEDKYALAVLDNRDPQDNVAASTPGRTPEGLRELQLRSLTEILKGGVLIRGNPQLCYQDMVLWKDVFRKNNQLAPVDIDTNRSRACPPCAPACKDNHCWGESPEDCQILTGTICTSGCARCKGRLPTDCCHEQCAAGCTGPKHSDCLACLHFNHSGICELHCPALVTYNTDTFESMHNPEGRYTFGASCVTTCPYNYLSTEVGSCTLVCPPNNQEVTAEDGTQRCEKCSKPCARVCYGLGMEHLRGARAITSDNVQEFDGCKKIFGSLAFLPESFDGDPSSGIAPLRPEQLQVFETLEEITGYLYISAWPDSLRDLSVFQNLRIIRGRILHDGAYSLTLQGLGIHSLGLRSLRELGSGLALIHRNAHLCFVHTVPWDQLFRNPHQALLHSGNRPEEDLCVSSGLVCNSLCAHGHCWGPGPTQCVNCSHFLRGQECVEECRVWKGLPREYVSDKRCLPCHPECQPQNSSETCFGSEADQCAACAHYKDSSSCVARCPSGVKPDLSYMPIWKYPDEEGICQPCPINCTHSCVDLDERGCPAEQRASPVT
Procedure summary: indirect ELISA, coated ErbB2-ECD
Result type: binding result

INSERT INTO assay_data (binder, measurement) VALUES
  ('4G6 chimera (antibody, V domains shown, also called 4G6 chimeric antibody) VH: QVQLQQSGAELARPGASVKMSCKASGYTFTSYTMHWVKQRPGQGLEWIGYINPSSAYTNYNQKFKDKATLTADKSSSTANMQLNSLTSEDSAVYYCARASAYSLDYWGQGTALTVSS VL: DIQMTQSPSSLSASLGGKVTITCKASQDINKYIAWYQHKPGKGPRLLIHSTSTLYPGIPSRFSGSGSGRDYSFRITNLEPEDIATYYCLQYDNLLWTFGGGTKVGIR', 'no binding'),
  ('5F12 chimera (antibody, V domains shown, also called 5F12 chimeric; 5F12 chimeric antibody) VH: QVQLQQSGAELARPGASVKMSCKASGYTFTSYTMHWIKQRPGQGLEWIGYINPSSSYTNYNQNFKDKATLTADKSSSTANMQLNSLTSEDSAVYYCARASSYSLDYWGQGTALTVSS VL: DIQMTQSPSSLSTSLGGKVTITCKASQDINKYIAWYQHKPGKGPRLLIHSTSTLYPGIPSRFSGSGSGKDYSFRITNLEPEDIATYYCLQYDNLLWTFGGGTKLGIR', 'no binding');
